test: yeast display, Sf9 membrane polyspecificity reagent, FACS + sequencing; frameworks hold sequencing errors
VALUE_KIND: polyreactivity (PSR sort gate)

Look over these answered cases.
QVQLVESGGGLVQAGGSLRLSCAASGGIFRFNAMAWYRQAPGKERELVAAINRGGSTDYADSVKGRFTSSRDNAKNTVYLQMNSLKPEDTAVYYCAADYEYRPKTRDGYYWGQGTQVTVSS = low polyreactivity
QVQLVESGGGKVQAGGSLRLSCAASGRILHEYAMGWYRQAPGKERELVAAITFSGTSTYYADSVKGRFTISRDNAKNTVYLQMYSLKPEDTAVYYCAADTYGGSRDYWGQGTQVTVSS = low polyreactivity
QVQLVESGGGLVQAGGSLRLSCAASGLTFKKYAMGWYRPAPGKERELVAAISSGSTTYYADSVKGRFTISRDNAKNTVYLQMNSLKPEDTAFYYCAARRKGTVASMGYWGQGTQVTVSS = high polyreactivity
QVQLQESGGGLVQAGGSLLSCAASGTISYYREMGWYRQAPGKERELVAGIGVGTITYYADSVKGRFTISRDNAKHTVYLQMNSLKPEDTAVYYCAAAYQEYDYHYYYWGQGTQVTVSS = low polyreactivity

Now for the sequence whose polyreactivity (PSR sort gate) we want.
Would you kindly share the measured polyreactivity (PSR sort gate) for `QVQLVESGGGLVQAGGSLRLSCAASGIIFRGNAMGWYRQAPGKERELVAGISSRGGSTYYADSVKGRFTISRDNAKNTVYLQMNSLKPEDTAVYYCAAQYRSYLSGYGYWGQGTQVTVSS` ?
high polyreactivity

Attribution: the nanobody polyreactivity screen of Harvey et al. (2022)
